Entry source: patent US20250170105A1

# MIC per entry
System: Streptococcus suis 702
Assay comment: Individual tests, microdilution MIC
Type: cell-based
Assay conditions: Streptococcus suis; S. suis 702; read-out: MIC values
Quantity measured: MIC

>>> reported_measurement("CCN1CCN(c2cc3c(cc2F)c(=O)c(C(=O)O)cn3C2CC2)CC1 [Enrofloxacin]")
"0.5 µg/mL"
>>> reported_measurement("C[C@H]1c2cccc(O)c2C(=O)C2=C(O)[C@]3(O)C(=O)C(C(N)=O)=C(O)[C@@H](N(C)C)[C@@H]3[C@@H](O)[C@@H]21 [Doxycycline]")
"0.5 µg/mL"
>>> reported_measurement("Cc1ccc(C(C)C)c(O)c1 [Thymol, 2-isopropyl-5-methylphenol]")
"1.87 mM"
>>> reported_measurement("CC1(C)S[C@@H]2[C@H](NC(=O)[C@H](N)c3ccccc3)C(=O)N2[C@H]1C(=O)O [Ampicillin]")
"0.25 µg/mL"
>>> reported_measurement("CO/N=C(\\C(=O)N[C@@H]1C(=O)N2C(C(=O)O)=C(CSC(=O)c3ccco3)CS[C@H]12)c1csc(N)n1 [Ceftiofur]")
"0.5 µg/mL"
>>> reported_measurement("CN(C)[C@@H]1C(O)=C(C(N)=O)C(=O)[C@@]2(O)C(O)=C3C(=O)c4c(O)cccc4[C@@](C)(O)[C@H]3C[C@@H]12 [Tetracycline, tetracycline, reference compound]")
"2 µg/mL"
>>> reported_measurement("C/C=C/C=C/C(=O)O [Sorbic Acid, sorbic acid]")
"50 mM"
>>> reported_measurement("O=C(O)CC(O)(CC(=O)O)C(=O)O [Citric acid, citric acid]")
"25 mM"
>>> reported_measurement("C=CCc1ccc(O)c(OC)c1 [Eugenolo, eugenol]")
"3.75 mM"
>>> reported_measurement("CS(=O)(=O)c1ccc([C@@H](O)[C@@H](CF)NC(=O)C(Cl)Cl)cc1 [Florfenicol]")
"2 µg/mL"
>>> reported_measurement("C=C[C@]1(C)C[C@@H](OC(=O)CSCCN(CC)CC)[C@]2(C)[C@H](C)CC[C@]3(CCC(=O)[C@H]32)[C@@H](C)[C@@H]1O [Tiamulin]")
"1 µg/mL"
>>> reported_measurement("CC[C@H]1OC(=O)C[C@@H](O)[C@H](C)[C@@H](O[C@@H]2O[C@H](C)[C@@H](O[C@H]3C[C@@](C)(O)[C@@H](O)[C@H](C)O3)[C@H](N(C)C)[C@H]2O)[C@@H](CC=O)C[C@@H](C)C(=O)/C=C/C(C)=C/[C@@H]1CO[C@@H]1O[C@H](C)[C@@H](O)[C@@H](OC)[C@H]1OC [Tylosin]")
"> 64 µg/mL"
>>> reported_measurement("CC1(C)S[C@@H]2[C@H](NC(=O)[C@H](N)c3ccc(O)cc3)C(=O)N2[C@H]1C(=O)O [Amoxicillin]")
"0.5 µg/mL"

* * *

Tested on: Escherichia Coli K88 95
Assay comment: Individual tests, microdilution MIC
Type: cell-based
Assay conditions: Escherichia coli, COLIK8895; E. coli 95; read-out: MIC values
# MIC per entry
Quantity measured: MIC (mg/L)

>>> reported_measurement("CCN1CCN(c2cc3c(cc2F)c(=O)c(C(=O)O)cn3C2CC2)CC1 [Enrofloxacin]")
2
>>> reported_measurement("CO/N=C(\\C(=O)N[C@@H]1C(=O)N2C(C(=O)O)=C(CSC(=O)c3ccco3)CS[C@H]12)c1csc(N)n1 [Ceftiofur]")
1

* * *

# MIC per entry
Test system: Streptococcus suis 701
Assay comment: Individual tests, microdilution MIC
Format: cell-based
Assay conditions: Streptococcus suis; S. suis 701; read-out: MIC values
Protocol: Strains were stored at −80° C. in appropriate media with glycerol, thawed and cultured according to conventional practices. The ABs shown in Tables 2 and 3 below, all obtained from Aplha Aesar, were tested. […] The tests were conducted using the microdilution method in a 96-well plate to be microtitered with the medium and culture conditions appropriate for the strains. […] For each test, the percentage of inhibition (%) was calculated with respect to the relative control. […]
Quantity measured: MIC (µg/mL)

>>> reported_measurement("CN(C)[C@@H]1C(O)=C(C(N)=O)C(=O)[C@@]2(O)C(O)=C3C(=O)c4c(O)cccc4[C@@](C)(O)[C@H]3C[C@@H]12 [Tetracycline, tetracycline, reference compound]")
64
>>> reported_measurement("CCN1CCN(c2cc3c(cc2F)c(=O)c(C(=O)O)cn3C2CC2)CC1 [Enrofloxacin]")
0.5
>>> reported_measurement("CC1(C)S[C@@H]2[C@H](NC(=O)[C@H](N)c3ccc(O)cc3)C(=O)N2[C@H]1C(=O)O [Amoxicillin]")
0.5
>>> reported_measurement("CC1(C)S[C@@H]2[C@H](NC(=O)[C@H](N)c3ccccc3)C(=O)N2[C@H]1C(=O)O [Ampicillin]")
0.25
>>> reported_measurement("CO/N=C(\\C(=O)N[C@@H]1C(=O)N2C(C(=O)O)=C(CSC(=O)c3ccco3)CS[C@H]12)c1csc(N)n1 [Ceftiofur]")
0.5
>>> reported_measurement("CS(=O)(=O)c1ccc([C@@H](O)[C@@H](CF)NC(=O)C(Cl)Cl)cc1 [Florfenicol]")
2
>>> reported_measurement("C[C@H]1c2cccc(O)c2C(=O)C2=C(O)[C@]3(O)C(=O)C(C(N)=O)=C(O)[C@@H](N(C)C)[C@@H]3[C@@H](O)[C@@H]21 [Doxycycline]")
16

* * *

Test system: Escherichia Coli K88 95
Assay comment: Individual tests, microdilution MIC
Type: cell-based
Assay conditions: Escherichia coli, COLIK8895; E. coli 95; read-out: MIC values
Quantity measured: MIC

>>> reported_measurement("CS(=O)(=O)c1ccc([C@@H](O)[C@@H](CF)NC(=O)C(Cl)Cl)cc1")
"16 µg/mL"
>>> reported_measurement("Cc1cc(NS(=O)(=O)c2ccc(N)cc2)no1")
"> 608 µg/mL"
>>> reported_measurement("COc1cc(Cc2cnc(N)nc2N)cc(OC)c1OC")
"> 32 µg/mL"
>>> reported_measurement("C/C=C/C=C/C(=O)O")
"50 mM"
>>> reported_measurement("C=CCc1ccc(O)c(OC)c1")
"3.75 mM"
>>> reported_measurement("CC1(C)S[C@@H]2[C@H](NC(=O)[C@H](N)c3ccc(O)cc3)C(=O)N2[C@H]1C(=O)O")
"> 64 µg/mL"
>>> reported_measurement("O=C(O)CC(O)(CC(=O)O)C(=O)O")
"> 100 mM"

* * *

System: Streptococcus suis 701
Assay comment: Individual tests, microdilution MIC
Assay type: cell-based
Assay conditions: Streptococcus suis; S. suis 701; read-out: MIC values
# MIC per entry
Quantity measured: MIC (µg/mL)

>>> reported_measurement("CC[C@H]1OC(=O)C[C@@H](O)[C@H](C)[C@@H](O[C@@H]2O[C@H](C)[C@@H](O[C@H]3C[C@@](C)(O)[C@@H](O)[C@H](C)O3)[C@H](N(C)C)[C@H]2O)[C@@H](CC=O)C[C@@H](C)C(=O)/C=C/C(C)=C/[C@@H]1CO[C@@H]1O[C@H](C)[C@@H](O)[C@@H](OC)[C@H]1OC")
2
>>> reported_measurement("C=C[C@]1(C)C[C@@H](OC(=O)CSCCN(CC)CC)[C@]2(C)[C@H](C)CC[C@]3(CCC(=O)[C@H]32)[C@@H](C)[C@@H]1O")
4

* * *

System: Streptococcus suis 701
Assay comment: Individual tests, microdilution MIC
Format: cell-based
Assay conditions: Streptococcus suis; S. suis 701; read-out: MIC values
# MIC per entry
Quantity measured: MIC

>>> reported_measurement("C/C=C/C=C/C(=O)O [Sorbic Acid, sorbic acid]")
"100 mM"
>>> reported_measurement("O=C(O)CC(O)(CC(=O)O)C(=O)O [Citric acid, citric acid]")
"50 mM"
>>> reported_measurement("C=CCc1ccc(O)c(OC)c1 [Eugenolo, eugenol]")
"3.75 mM"
>>> reported_measurement("Cc1ccc(C(C)C)c(O)c1 [Thymol, 2-isopropyl-5-methylphenol]")
"1.87 mM"
